Target: Caspase-8 (Homo sapiens)
Sequence (Q14790 217-374 limits assumed): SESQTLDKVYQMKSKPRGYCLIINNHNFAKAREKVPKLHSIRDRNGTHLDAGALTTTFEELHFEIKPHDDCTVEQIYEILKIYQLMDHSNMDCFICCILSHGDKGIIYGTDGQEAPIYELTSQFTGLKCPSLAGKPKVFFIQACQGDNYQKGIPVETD
Sequence (Q14790 385-479 limits assumed): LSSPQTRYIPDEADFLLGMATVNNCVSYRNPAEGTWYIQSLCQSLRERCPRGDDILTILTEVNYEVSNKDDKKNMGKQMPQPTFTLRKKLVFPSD
Assay: Inhibitory activity against Caspase 8
PROPERTY: pIC50
Give only the number. pIC50 is defined as minus log10 of concentration in molar units.

Examples from the recorded data:
| COMPOUND | pIC50 |
| --- | --- |
| O=C1C[C@H](NC(=O)[C@@H]2COC[C@@H]3C/C=C\C[C@H](NC(=O)c4cccc(C(F)(F)F)c4)C(=O)N32)C(O)O1 (stereo partly specified) | 5.38 |
| O=C1C[C@H](NC(=O)[C@@H]2CN(S(=O)(=O)c3ccccc3)C[C@@H]3CCCC[C@H](NC(=O)c4ccccc4)C(=O)N32)C(O)O1 (stereo partly specified) | 6.97 |
| CC(=O)N1C[C@@H]2CCCC[C@H](NC(=O)c3ccccc3)C(=O)N2[C@H](C(=O)N[C@H]2CC(=O)OC2O)C1 (stereo partly specified) | 6.32 |
| O=C1C[C@H](NC(=O)[C@@H]2CN(C(=O)OCc3ccccc3)C[C@@H]3C/C=C\C[C@H](NC(=O)c4ccccc4)C(=O)N32)C(O)O1 (stereo partly specified) | 7.89 |
| O=C1C[C@H](NC(=O)[C@@H]2COC[C@@H]3C/C=C\C[C@H](NC(=O)c4cccc(Cl)c4)C(=O)N32)C(O)O1 (stereo partly specified) | 5.81 |

Exam item: Quick one: pIC50 for O=C1C[C@H](NC(=O)[C@@H]2CN(C(=O)Nc3ccccc3)C[C@@H]3CCCC[C@H](NC(=O)c4ccccc4)C(=O)N32)C(O)O1 (stereo partly specified) ?
Marked response: 6.22
